- studyTarget: human delta N-HTRA1 (amino acids 156-480 of SEQ ID NO:1) (human, UniProt Q92743 156-480)
- Sequence (Q92743 156-480, stated change not applied): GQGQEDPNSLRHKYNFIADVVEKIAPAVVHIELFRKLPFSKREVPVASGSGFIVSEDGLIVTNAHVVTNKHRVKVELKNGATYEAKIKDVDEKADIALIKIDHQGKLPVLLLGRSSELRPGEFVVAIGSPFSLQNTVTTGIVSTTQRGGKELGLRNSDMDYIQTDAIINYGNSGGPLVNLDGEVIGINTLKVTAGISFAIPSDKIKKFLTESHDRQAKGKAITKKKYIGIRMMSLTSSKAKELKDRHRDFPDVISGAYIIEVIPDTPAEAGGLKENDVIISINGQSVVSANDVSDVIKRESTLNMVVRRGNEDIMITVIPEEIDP
- protocolText: SPR (Biacore); antibody captured by anti-Fc, human delta N-HTRA1 injected; temperature of this table not stated
endpointName: koff (s⁻¹)

antibody 65G8 (antibody, V domains shown, Mouse hybridoma monoclonal antibody) VH: QVQLQQSGPQLVRPGASVKISCKASGYSFTSYWMHWVKQRPGQGLEWIGMIDPSDSETRLNQKFKDKATLTIDKSSSTAYMQLSSPTSEDSAVYYCTRDYFDYWGQGTTLTVSS VL: QIVLTQSPAIMSTSPGEKVTMTCSASSSVSYMYWYQQKPGSSPRLLIYDTSNLASGVPVRFSGSGSGTSYSLTISRMEAEDAATYYCQQWSSYPYTFGGGTKLEIK = 0.003
antibody 9F8 (antibody, V domains shown, Mouse hybridoma monoclonal antibody) VH: QVQLQQPGAELVRPGSSVKLSCKASGYAFTTYWMHWVKQRPIQGLEWIGNIDPSDSETHYNQKFRDKATLTVDKSSSTAYMQLSSLTSEDSAVYYCARDYGAFDVWGTGTTVTVSS VL: QAVVTQESALTTSSGETVTLTCRSSTGAVTTRNFASWVQEKPDHLFTGLIGGTNNRAPGVPARFSGSLIGDKAALTITGAQTEDEAIYFCALWYSNLWVFGGGTKLTVL = 0.0044
antibody 55B12 (antibody, V domains shown, Mouse hybridoma monoclonal antibody) VH: QVQLQQPGAELVKPGASVKLSCKASGYTFTNYWMHWVKQRPGQGLEWIGNIDPSDSETHYNQKFKDKATLAVDKSSSTAYMQLSSLTSEDSAVYYCAREDSSGYGAYWGQGTLVTVSA VL: QIVLTQSPAIMSASPGEKVTMTCSASSSVNYMHWYQQKSGTSPKRWIYDTSKLASGVPDRFSGSGSGTSYSLTISSMEAEDAATYYCQQWSSHPLTFGAGTKLELK = 0.017
antibody 24F7 (antibody, V domains shown, Mouse hybridoma monoclonal antibody; also called parental 24F7 antibody) VH: QVQLQQSGAELVRPGASVKLSCKASGYTFTDYEMHWVKQTPVHGLEWIGAIDPETGGTAYNQKFKGKATLTADKSSSTAYMELRSLTSEDSAVYYCTREGYSYDGGGYYFDYWGQGTTLTVSS VL: QIVLTQSPAIMSASPGEKVTMTCSVSSSVSYMYWYQQKPGSSPRLLIYDTSNLASGVPVRFSGSGSGTSYSLTISRMEAEDAATYYCQQWSSYPTFGGGTKLEIK = 8.5e-05
